System: Veronica persica
protocol-text: Pre-emergence herbicidal action, VERPE
Format: in vivo
experimental-parameters: dosage 320 g/ha
Below, each entry is listed with its recorded herbicidal action VERPE.
Form entry: value (%) — number only.

Here is how some compounds turned out for herbicidal action VERPE.
Cn1nnnc1NC(=O)c1ccc(C(F)(F)F)c(CS(C)(=O)=O)c1S(C)(=O)=O [Example 1-199] = 100
CCS(=O)(=O)Cc1c(C(F)(F)F)ccc(C(=O)Nc2nnnn2C)c1C [Example 1-88] = 100
CCn1nnnc1NC(=O)c1ccc(C)c(CS(C)(=O)=O)c1Cl [Example 2-289] = 90
CCCn1nnnc1NC(=O)c1ccc(C)c(CS(C)(=O)=O)c1Cl [Example 3-289] = 90
CCS(=O)(=O)Cc1c(C(F)F)ccc(C(=O)Nc2nnnn2C)c1S(=O)(=O)CC [Example 1-229] = 100

Looking up CCn1nnnc1NC(=O)c1ccc(C)c(C[S+](C)[O-])c1Cl (stereo not drawn) [Example 2-288] , I see its herbicidal action VERPE listed as 100

Memo: CSCc1c(C)ccc(C(=O)Nc2nnnn2C)c1Cl [Example 1-287] , reported herbicidal action VERPE: 100

Recorded result, Cc1c(C(=O)Nc2nnnn2C)ccc(C(F)F)c1C[S+](C)[O-] (stereo not drawn) [Example 1-108] , herbicidal action VERPE: 90

Record CCCn1nnnc1NC(=O)c1ccc(C(F)(F)F)c(CS(C)(=O)=O)c1S(C)(=O)=O [Example 3-199] , field herbicidal action VERPE: 100

====

Recorded herbicidal action POLCO values for a group of compounds are listed next.
Tested on: Polygonum convolvulus
protocol-text: Post-emergence herbicidal action, POLCO
Assay type: in vivo
experimental-parameters: post-emergence, dosage 80 g/ha
Output spec: scalar in %, unitless text.

Would you please look over these solved cases?
CSc1c(C(=O)Nc2nnnn2C)ccc(C(F)(F)F)c1C[S+](C)[O-] (centres unmarked) [Example 1-162] = 90
COCCSCc1c(C(F)(F)F)ccc(C(=O)Nc2nnnn2C)c1Cl [Example 1-305] = 100

Kindly note the recorded herbicidal action POLCO for CCCn1nnnc1NC(=O)c1ccc(C(F)(F)F)c(C[S+](C)[O-])c1Cl (centres unmarked) [Example 3-297] , which is 80

# herbicidal action POLCO of CCn1nnnc1NC(=O)c1ccc(C(F)(F)F)c(C[S+](C)[O-])c1Br (centres unmarked) [Example 2-381] = 90

So for CSCc1c(C(F)(F)F)ccc(C(=O)Nc2nnnn2C)c1C [Example 1-83] , the logged herbicidal action POLCO turned out to be 90

====

Test system: Hordeum murinum
protocol-text: Post-emergence herbicidal action, HORMU
Format: in vivo
Set-up: key: % herbicidal action: 100 = plants died, 0 = like control
experimental-parameters: post-emergence, dosage 80 g/ha
measured-metric: herbicidal action HORMU (%)
Expressed in %, but write only the number.

Observe how each entry below is paired with its result.
Cn1nnnc1NC(=O)c1ccc(C(F)(F)F)c(C[S+]([O-])CC(F)(F)F)c1Cl (racemic) = 80
CC[S+]([O-])Cc1c(C(F)(F)F)ccc(C(=O)Nc2nnnn2C)c1Cl (racemic) = 90
Cn1nnnc1NC(=O)c1ccc(C(F)(F)F)c(CSCC2CC2)c1Cl = 100
CCn1nnnc1NC(=O)c1ccc(C(F)F)c(C[S+]([O-])CC)c1Cl (stereo not drawn) = 90
CCn1nnnc1NC(=O)c1ccc(C(F)(F)F)c(C[S+]([O-])CC)c1Cl (stereo not drawn) = 90
Cn1nnnc1NC(=O)c1ccc(C(F)(F)F)c(CSC2CC2)c1Cl = 90
Cn1nnnc1NC(=O)c1ccc(I)c(C[S+](C)[O-])c1Cl (racemic) = 90
CCCn1nnnc1NC(=O)c1ccc(C(F)(F)F)c(C[S+](C)[O-])c1SC (stereo not drawn) = 90
CSCc1c(I)ccc(C(=O)Nc2nnnn2C)c1Cl = 100
COCCSCc1c(C(F)(F)F)ccc(C(=O)Nc2nnnn2C)c1Cl = 90

Switching to the query record.
Lab book: herbicidal action HORMU of Cn1nnnc1NC(=O)c1ccc(C(F)(F)F)c(CS(=O)(=O)C2CC2)c1Cl noted as 80
